System: HOP-92 NSCLC
method-summary: NCI-60 one-dose screen, 48 h (100 = growth as untreated, 0 = no growth, -100 = all killed)
test-conditions: 10 µM unless noted
The panel holds about 83,000 compounds, 20% with a hit somewhere; the sample as a whole holds those more often.
# growth annotations
Numeric answer only, unit % assumed.

Some entries whose results are on file:
[
  {
    "compound": "COc1cc(CNC(=O)CCSc2nc3ccccc3c(=O)n2Cc2cc(OC)c(OC)c(OC)c2)cc(OC)c1OC",
    "system-name": "HOP-92 NSCLC",
    "growth [%]": 44.6
  },
  {
    "compound": "O=c1c2cccc3c(Nc4ccc(F)cc4)ccc(c32)c2nc3ccccc3n12",
    "system-name": "HOP-92 NSCLC",
    "growth [%]": 53.2
  },
  {
    "compound": "C#CCN1C(=O)/C(=c2\\sc3n(c2=O)C2C(NN=3)N(CC)C(=O)N2CC)c2ccccc21 (stereo not given)",
    "system-name": "HOP-92 NSCLC",
    "growth [%]": 58.1
  },
  {
    "compound": "CCN(C(=O)c1cc2ccccc2[nH]1)[C@H]1CCC[C@@H](NCc2ccc(OC)cc2)C1",
    "system-name": "HOP-92 NSCLC",
    "growth [%]": 81
  }
]

Incoming: Could you share what growth was measured for O=C(CCC(=O)OC1CCCC1)OC1CCCC1 , tested on HOP-92 NSCLC?
Outgoing: 73.1
